Each entry below carries its recorded IC50.
- target-desc: Mitogen-activated protein kinase 1 (Homo sapiens, UniProt P28482)
- Sequence (P28482 whole entry): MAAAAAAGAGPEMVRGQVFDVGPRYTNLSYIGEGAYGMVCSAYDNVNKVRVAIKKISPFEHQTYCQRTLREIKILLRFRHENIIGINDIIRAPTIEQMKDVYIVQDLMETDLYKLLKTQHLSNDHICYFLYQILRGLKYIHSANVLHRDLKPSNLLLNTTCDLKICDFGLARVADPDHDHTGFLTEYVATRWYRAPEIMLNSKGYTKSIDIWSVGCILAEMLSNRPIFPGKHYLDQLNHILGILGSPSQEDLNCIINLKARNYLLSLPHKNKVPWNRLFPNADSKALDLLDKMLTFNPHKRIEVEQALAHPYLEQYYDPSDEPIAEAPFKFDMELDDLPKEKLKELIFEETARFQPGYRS
Dear colleague, please return just the value in nM, with no unit written.

Guide cases for IC50, answers given:
1. O=C(N[C@H](CO)c1ccc(F)c(Cl)c1)N1CCc2cnc(NC3CCCC3)nc2C1	4
2. CC[C@@H](NC(=O)N1CCc2cnc(N[C@@H](C)CO)nc2C1)c1ccc(Cl)c(Cl)c1	2

Now look at this entry.
Exercise: What value of IC50 has been reported for the following molecule? Cn1cc(Nc2ncc3c(n2)CN(C(=O)N[C@H](CO)c2ccc(F)c(Cl)c2)CC3)cn1
Key: 6

----------
- target-desc: Mitogen-activated protein kinase 1 (Homo sapiens, UniProt P28482)
Mark condition met only for IC50 values smaller than 7 nM; exact matches and larger values are condition not met.

// below: answered compounds
1) C[C@@H](CO)Nc1ncc2c(n1)CN(C(=O)N[C@H](CO)c1ccc(F)c(Cl)c1)CC2	condition met
2) CC(C)Nc1ncc2c(n1)CN(C(=O)N[C@H](CO)c1ccc(F)c(Cl)c1)CC2	condition met
3) CC[C@@H](NC(=O)N1CCc2cnc(N[C@@H](C)CO)nc2C1)c1ccc(OC)c(Cl)c1	condition met

Exercise: Strictly below 7 nM: is that where IC50 of CC(C)Nc1ncc2c(n1)CN(C(=O)N[C@@H](c1ccc(F)c(Cl)c1)[C@@H](C)O)CC2 sits?
Key: condition met

Exercise: Try this compound next: CC(C)Nc1ncc2c(n1)CN(C(=O)N[C@H](CN)c1ccc(F)c(Cl)c1)CC2
Key: condition met

Exercise: Try this compound next: C[C@@H](NC(=O)N1CCc2cnc(NC3CCOCC3)nc2C1)c1ccc2cc[nH]c2c1
Key: condition met

Exercise: Try this compound next: C[C@@H](NC(=O)N1CCc2cnc(N[C@H]3CCO[C@@H](CO)C3)nc2C1)c1ccc(Cl)c(Cl)c1
Key: condition met

----------
Parameter 'readout' = log10 of IC50; parameter 'system' = Mitogen-activated protein kinase 1 (Homo sapiens).
// do not treat as linear: log10 of IC50, unit nM

1. COc1ccc(CNC(=O)N2CCc3cnc(NC(C)C)nc3C2)cc1	2.03
2. C[C@@H](NC(=O)N1CCc2cnc(Nc3ccnn3C)nc2C1)c1ccc(Cl)c(Cl)c1	0.00
3. CC(C)Nc1ncc2c(n1)CN(C(=O)NCc1cccc(Cl)c1)CC2	1.95

Exercise: What value of log10 of IC50 has been reported for the following compound? CC(C)Nc1ncc2c(n1)CN(C(=O)NCc1ccc(F)c(Cl)c1)CC2
Key: 1.82

Exercise: Try this compound next: CC(C)Nc1ncc2c(n1)CN(C(=O)N[C@@H](c1ccc(F)c(Cl)c1)[C@H](C)O)CC2
Key: 0.78

Exercise: Try this compound next: CC(C)Nc1ncc2c(n1)CN(C(=O)NCc1ccccc1)CC2
Key: 2.45

Exercise: Try this compound next: C[C@@H](CO)Nc1ncc2c(n1)CN(C(=O)N[C@H](C)c1ccc(C(F)(F)F)c(F)c1)CC2
Key: 0.48

Exercise: Try this compound next: Cc1cc(Nc2ncc3c(n2)CN(C(=O)N[C@H](CO)c2ccc(F)c(Cl)c2)CC3)ccn1
Key: 0.85

Exercise: Try this compound next: CC(C)CNc1ncc2c(n1)CN(C(=O)N[C@H](CO)c1ccc(F)c(Cl)c1)CC2
Key: 1.00

Exercise: Try this compound next: C[C@@H](NC(=O)N1CCc2cnc(Nc3cnn(C)c3)nc2C1)c1ccc(Cl)c(Cl)c1
Key: 0.00

Exercise: Try this compound next: CC(C)Nc1ncc2c(n1)CN(C(=O)NCc1ccc(Cl)c(F)c1)CC2
Key: 1.91

Exercise: Try this compound next: CC(C)Nc1ncc2c(n1)CN(C(=O)NCc1ccc(F)cc1)CC2
Key: 1.84

Exercise: Try this compound next: CC[C@@H](NC(=O)N1CCc2cnc(NC3CCOCC3)nc2C1)c1ccc(C#N)c(Cl)c1
Key: 0.00

Exercise: Try this compound next: CNC[C@@H](NC(=O)N1CCc2cnc(NC(C)C)nc2C1)c1ccc(F)c(Cl)c1
Key: 0.60

Exercise: Try this compound next: CC(C)Nc1ncc2c(n1)CN(C(=O)N[C@H](CNS(C)(=O)=O)c1ccc(F)c(Cl)c1)CC2
Key: 0.85

Exercise: Try this compound next: CC[C@H](O)[C@@H](NC(=O)N1CCc2cnc(NC(C)C)nc2C1)c1ccc(F)c(Cl)c1
Key: 0.30

These data points were gathered from ChEMBL document CHEMBL3297705.
